Test system: MS2 coat protein
protocol_details: apparent KD of MS2 coat protein; designed switch direction (-1 OFF switch, 1 ON switch): -1; higher = weaker reporter binding
condition_set: Eterna round: R95; input ligand: FMN 200 uM
The following sequences are shown together with reported apparent KD of MS2 coat protein values.
Value expressed in nM; do not type the unit.

// below: answered sequences
| sequence_record | target_desc | result_units | apparent KD of MS2 coat protein |
| --- | --- | --- | --- |
| AGUACUAACACGAAAGUGUUAGUACAAUAAGCUUGUGUAACAUGAGGAUCACCCAUGUCCUCAUAAGCUCGUCUUAU [salish99_TOv2_r3_043] (puzzle: Sensor v3, turn-off variant 2) | MS2 coat protein | nM | 50.6 |
| GAAAAGGUAGGAUAUACUAAAAAAAAGGGUAGAAAAAAAACACAUGAGGAUCACCCAUGUAGAAGGACCAAAAG [salish99_ex2_r3_058] (puzzle: Exclusion 2) | MS2 coat protein | nM | 48.2 |
| GUUAAACAUGAGGAUCACCCAUGUAAGGAUAUGCUGAGGUAGAGAUGAAGUGAAUGAAGCAGAAGGUACAAUUG [Mat - Mod of JL D55] (puzzle: Exclusion 1) | MS2 coat protein | nM | 62.6 |
| GAUUAUGCGAGCUUUAGGGACAUGAGGAUCACCCAUGUUCGUCUUAUUGAUCUAGGUACGCUAACAUACCUAAAUCU [Mod of one of jandersonlee's solutions 3] (puzzle: Sensor v3, turn-off variant 1) | MS2 coat protein | nM | 23 |
| CUGAGCAGACGGAAAUCCAACAUGAGGAUCACCCAUGUCUCAAAAGCUUUUUGCUUGUCUUAUUCUCCUCUGUUCUC [Edtile] (puzzle: Sensor v3, turn-off variant 1) | MS2 coat protein | nM | 13.8 |

Query string: Give the reported apparent KD of MS2 coat protein for UGGUAACAUGAGGAUCACCCAUGUCAGGAUAUCAGGAAGAAGAGAGGAGAGGAGAAGAUGAGAAGGGACUAUAU [Excluse me! 11 - Jieux - Exclusion 1] (puzzle: Exclusion 1) (system: MS2 coat protein).
Result string: 21.6

Query string: Give the reported apparent KD of MS2 coat protein for ACAAGUUUUUUGUUUUUUAACAUGAGGAUCACCCAUGUAUUUUUAGAGGAUGUGGGAAUAAGAGCUCUUUGUCUUAU [JR_SV3TOV1_Sub097] (puzzle: Sensor v3, turn-off variant 1) (system: MS2 coat protein).
Result string: 38.6

Query string: Give the reported apparent KD of MS2 coat protein for AGAAAUGCCCAUGGCCACAAGCUUUUUGCUUGCCUUACCACAUGAGGAUCACCCAUGUGACAUGGGCUCCUUAUAAU [Teoredale] (puzzle: Sensor v3, turn-off variant 2) (system: MS2 coat protein).
Result string: 15.3

Query string: Give the reported apparent KD of MS2 coat protein for AGAAUUGCCCAUGGCCGCAAGCUUUUUGCUUGUCUUACCACAUGAGGAUCACCCAUGUGACAUGGGCUCCUUAUAAU [Anargees] (puzzle: Sensor v3, turn-off variant 2) (system: MS2 coat protein).
Result string: 13.9

Query string: Give the reported apparent KD of MS2 coat protein for UAAUAUAGUGUGAGGAUAUGCUGGUCGAUAGAUCAGCAGAAGGCACAUGAGGAUCACCCAUGUAAUAUAUUAAA [Mat - Exclusion 4 - JL Mod - D36] (puzzle: Brourd's mod of Exclusion 4) (system: MS2 coat protein).
Result string: 64.6
